Where do the numbers come from? From ChEMBL document CHEMBL1926574.

Biological target: Adenosine receptor A2b (Homo sapiens)
Sequence (P29275 whole entry): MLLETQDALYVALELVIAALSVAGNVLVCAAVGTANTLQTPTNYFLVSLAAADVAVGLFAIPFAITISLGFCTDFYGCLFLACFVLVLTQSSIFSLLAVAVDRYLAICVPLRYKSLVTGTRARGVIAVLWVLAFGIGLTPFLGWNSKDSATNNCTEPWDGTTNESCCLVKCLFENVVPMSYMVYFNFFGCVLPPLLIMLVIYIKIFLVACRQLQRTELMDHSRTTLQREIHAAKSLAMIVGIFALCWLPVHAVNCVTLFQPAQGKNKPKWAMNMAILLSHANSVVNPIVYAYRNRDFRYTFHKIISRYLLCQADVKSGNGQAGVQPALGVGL
Assay: Antagonist activity at human recombinant adenosine A2B receptor expressed in CHO cells assessed as inhibition of NECA-stimulated adenylyl cyclase activity
Consider the following molecules and their measured IC50 readings.
Parameter Measured: IC50

- Molecule: "NCCCNc1nc(N)n2nc(-c3ccco3)nc2n1"
  Recorded Result: "> 30 µM"
- Molecule: "CC(C)(C)CC(=O)N1CCN(c2nc(N)n3nc(-c4ccco4)nc3n2)CC1"
  Recorded Result: "> 100 µM"
- Molecule: "Nc1nc(N2CCN(Cc3ccc(Cl)cc3)CC2)nc2nc(-c3ccco3)nn12"
  Recorded Result: "> 30 µM"
- Molecule: "NCC1CCC(CNc2nc(N)n3nc(-c4ccco4)nc3n2)CC1.O=C(O)C(F)(F)F (stereo unspecified)"
  Recorded Result: "10.7 µM"
- Molecule: "CCCCC(=O)N1CCN(c2nc(N)n3nc(-c4ccco4)nc3n2)CC1"
  Recorded Result: "> 100 µM"
- Molecule: "Nc1nc(N2CCN(C(=O)C(c3ccccc3)c3ccccc3)CC2)nc2nc(-c3ccco3)nn12"
  Recorded Result: "> 100 µM"
- Molecule: "Nc1nc(N2CCN(C(=O)Cc3ccccc3)CC2)nc2nc(-c3ccco3)nn12"
  Recorded Result: "> 100 µM"
- Molecule: "COC(=O)CCC(=O)N1CCN(c2nc(N)n3nc(-c4ccco4)nc3n2)CC1"
  Recorded Result: "> 100 µM"
- Molecule: "CC(C)(C)OC(=O)NCCNc1nc(NCCNC(=O)OC(C)(C)C)n2nc(-c3ccco3)nc2n1"
  Recorded Result: "> 100 µM"
- Molecule: "Nc1nc(N2CCN(C(=O)Cc3ccc(Cl)cc3)CC2)nc2nc(-c3ccco3)nn12"
  Recorded Result: "> 100 µM"
- Molecule: "CC(C)(C)OC(=O)NCCCNc1nc(N)n2nc(-c3ccco3)nc2n1"
  Recorded Result: "20.6 µM"
- Molecule: "O=C(Nc1nc(Oc2ccccc2)nc2nc(-c3ccco3)nn12)c1ccccc1"
  Recorded Result: "> 10 µM"
- Molecule: "Nc1nc(N2CCN(Cc3ccccc3)CC2)nc2nc(-c3ccco3)nn12"
  Recorded Result: "> 30 µM"
- Molecule: "CC(C)(C)OC(=O)NCCCCCNc1nc(N)n2nc(-c3ccco3)nc2n1"
  Recorded Result: "> 10 µM"
- Molecule: "Nc1nc(N2CCN(C(=O)C(Cl)Cl)CC2)nc2nc(-c3ccco3)nn12"
  Recorded Result: "> 100 µM"
- Molecule: "Nc1nc(N2CCN(C(=O)c3ccc([N+](=O)[O-])cc3)CC2)nc2nc(-c3ccco3)nn12"
  Recorded Result: "> 100 µM"
- Molecule: "NCCNc1nc(N)n2nc(-c3ccco3)nc2n1"
  Recorded Result: "> 100 µM"
- Molecule: "Nc1nc(O)nc2nc(-c3ccco3)nn12"
  Recorded Result: "> 10 µM"
- Molecule: "CC(C)(C)OC(=O)N1CCN(c2nc(N)n3nc(-c4ccco4)nc3n2)CC1"
  Recorded Result: "> 10 µM"
- Molecule: "Nc1nc(N2CCN(Cc3ccc(Br)cc3)CC2)nc2nc(-c3ccco3)nn12"
  Recorded Result: "> 10 µM"
- Molecule: "Nc1nc(N)n2nc(-c3ccco3)nc2n1"
  Recorded Result: "11.1 µM"
- Molecule: "Nc1nc(NC(=O)c2ccccc2)n2nc(-c3ccco3)nc2n1"
  Recorded Result: "7.06 µM"
- Molecule: "Nc1nc(N2CCCC2)nc2nc(-c3ccco3)nn12"
  Recorded Result: "> 30 µM"
- Molecule: "Nc1nc(N2CCN(Cc3cccc(Cl)c3)CC2)nc2nc(-c3ccco3)nn12"
  Recorded Result: "> 30 µM"
- Molecule: "NCCOCCOCCNc1nc(N)n2nc(-c3ccco3)nc2n1.O=C(O)C(F)(F)F"
  Recorded Result: "> 10 µM"
- Molecule: "Nc1nc(N2CCN(C(=O)c3cccc4ccccc34)CC2)nc2nc(-c3ccco3)nn12"
  Recorded Result: "> 100 µM"
- Molecule: "NCCNc1nc(NCCN)n2nc(-c3ccco3)nc2n1"
  Recorded Result: "> 100 µM"
- Molecule: "CC(C)(C)OC(=O)NCCNc1nc(N)n2nc(-c3ccco3)nc2n1"
  Recorded Result: "> 10 µM"
- Molecule: "O=C(Nc1nc(O)nc2nc(-c3ccco3)nn12)c1ccccc1"
  Recorded Result: "> 100 µM"
- Molecule: "NCCCCCNc1nc(N)n2nc(-c3ccco3)nc2n1"
  Recorded Result: "> 10 µM"
- Molecule: "Nc1nc(N2CCN(C(=O)c3ccccc3)CC2)nc2nc(-c3ccco3)nn12"
  Recorded Result: "> 100 µM"
- Molecule: "Nc1nc(N2CCN(Cc3ccc(F)cc3)CC2)nc2nc(-c3ccco3)nn12"
  Recorded Result: "> 10 µM"
- Molecule: "CC(C)(C)OC(=O)NCC1CCC(CNc2nc(N)n3nc(-c4ccco4)nc3n2)CC1 (stereo unspecified)"
  Recorded Result: "7.14 µM"
- Molecule: "CC(C)(C)C(=O)N1CCN(c2nc(N)n3nc(-c4ccco4)nc3n2)CC1"
  Recorded Result: "> 100 µM"
- Molecule: "Nc1nc(N2CCNCC2)nc2nc(-c3ccco3)nn12"
  Recorded Result: "> 30 µM"
- Molecule: "CC(C)(C)OC(=O)NCCOCCOCCNc1nc(N)n2nc(-c3ccco3)nc2n1"
  Recorded Result: "> 10 µM"
